# targetDesc: Respiratory Syncytial Virus fusion glycoprotein (RSV F) on RSV-A2 virus (Respiratory Syncytial Virus subtype A (RSV-A2))
# assayName: cell-based or functional assay
observable: Neutralization IC50 (RSV subtype A) (µg/mL)

| binder | observable | censorSymbol | endpointValue |
| --- | --- | --- | --- |
| ADI-41217 (antibody, V domains shown) VH: EVQLVQSGGGLVKPGGSLRLSCVASGFTFSSYSMNWVRQAPGKGLEWVSSISASSSYIDYADSVKGRFTISRDNDKKSLYLQMSSLRAEDTAVYYCAREDYDSLTGYYSPKRFDPWGQGTLVTVSS VL: QSVLTQPPSLSGAPGQRVTISCTGSSSNIGAGYDVHWYQQLPGTAPKLLIYGNNNRPSGVPDRFSGSKSGTSASLAITGLQAEDEADYYCQSYDRSLSVVFGGGTKVTVL | Neutralization IC50 (RSV subtype A) | = | 0.04 |
| ADI-41233 (antibody, V domains shown) VH: EVQLLESGGGLVKPGGSLRLSCAASGFIFRDYYMIWIRQAPGKGLEWVSYISSSSTYTNNADSVKGRFTISRDNAKNSLYLQMNSLRAEDTAVYYCARLFASRSDGAFDIWGQGTTVTVSS VL: QSVLTQPPSVSGAPGQRVTISCTGSSSNIGAGYDVHWYQQLPETAPKLLIYDNNNRPSGVPDRFSGSKSGTSASLAITGLQAEDEADYYCQSYDSSLSGYVFGTGTTVTVL | Neutralization IC50 (RSV subtype A) | = | 0.15 |
| ADI-36671 (antibody, V domains shown) VH: EVQLLESGGGLVKPGGSLRLSCAASGFTFSGYYMTWIRQAPEKGLEWVSYISGGSTYTNYADSVRGRFTISRDNARNSLYLQMNSLRAEDTAVYYCARDGGYGIGPLYWGQGSLVTVSS VL: QPVLTQPPSVSGAPGQRVTISCTGSSSNIGAPFDVHWYQQLPGTAPKPLIYGNSNRPSGVPDRFSGSKSGTSASLAITGLQAEDEADYYCQSYDSSLGGYVFGTGTKLTVL | Neutralization IC50 (RSV subtype A) | = | 0.01 |
| ADI-41154 (antibody, V domains shown) VH: QVQLQQWGAGLSKPSETLSVTCAVYGGSLSGHYWSWFRQPPGKGLEWIGEIDHSGSTTYNPSLKSRVTISVDTSKNQFSLKLTSVTAADTAMYYCARATRYNYGYTFDYWGQGTLVTVSS VL: DIPLTQSPSSLSASVGDRVTITCRASQIISSYLNWYQQKPGKAPKLLIYAASTLQSGVPSRFSGSRSGTDFTLTISSLQPEDFASYYCQQSYIIPFTFGPGTKVEIK | Neutralization IC50 (RSV subtype A) | > | 25 |
| ADI-41212 (antibody, V domains shown) VH: EVQLLESGAEVKKPGASVKVSCKASGYTFTDYYIHWVRQAPGQGLEWMGRINPKNGDAIYAQNFQGRVTMTRDTSISTAYMEVSRLTSDDTAVYYCARDQMWLVLDYWGQGTLVTVSS VL: QSALTQPASVSGSPGQSITISCTGTSSDVGGYDYVSWYQQHPGKAPKLMIHDVTNRPSGISHRFSGSKSGNTASLTISGLQAGDEADYYCSSYTRSNTKVFGTGTKVTVL | Neutralization IC50 (RSV subtype A) | > | 25 |
| ADI-41180 (antibody, V domains shown) VH: EVQLVQSGGGLVKPGGSLRLSCAASGFTFIDYYMSWIRQAPGKGLEWVSSISGGSTYTTYADSVKGRFTISRDNGKNSLYLQMDSLRAEDTAVYYCARLGGYSYYMDVWGKGTTVTVSS VL: QPVLTQPPSVSGAPGQRVTISCTGSSSNIGAGYDVHWYQHLPGAAPKLLIYDNTNRPSGIPDRFSGSKSGTSASLAITGLQAEDEADYYCQSYDSSLDWVFGGGTKVTVL | Neutralization IC50 (RSV subtype A) | = | 0.07 |
| ADI-41168 (antibody, V domains shown) VH: EVQLVETGGGVVQPGRSLRLSCAASGFTFSSYGMHWVRQAPGKGLEWVAVISYDGSNKYYADSVKGRFTISRDNSKNTLYLQMNSLRTEDTAVYYCAKGGGYYYYYMDVWGKGTTVTVSS VL: QPVLTQPASVSGSPGQSITISCTGTSSDVGGYNYVSWYQQHPGKAPKLMIYGVNNRPSGVSNRFSGSKSGNTASLTISGLQGEDEADYYCNSYRSGITVVFGGGTKLTVL | Neutralization IC50 (RSV subtype A) | > | 25 |
| ADI-41224 (antibody, V domains shown) VH: EVQLVETGGGLVQPGRSLRLSCTASGFTFGDYAMNWVRQAPGKGLEWIGIIRTKTYGGTTEYAASVKGRFTISRDDSKGIAYLQMNSLKTEDTGVYYCTMPVLNMDVWGQGTTVTVSS VL: QPVLTQPHSVSESPGKTVTISCTRNIGNIASNYVQWYQQRPGSSPTTVIYEDNQRPSGVPDRFSGSIDISSNSASLTISGLKTEDEADYYCQSYDSNNPWVFGGGTQLTVL | Neutralization IC50 (RSV subtype A) | = | 0.13 |
| ADI-41219 (antibody, V domains shown) VH: EVQLVESGGGLVQPAGSLRLSCAASGFTFSNYVMNWVRQAPGKGLEWVSYISSSGRTIHYADSVKGRFTISRDNAKNSLYLEMNSLRAEDTAVYYCARDPNYGGNSNRFDSWGQGTLVTVSS VL: DIVMTQTPSSLSASVGDRVTITCRASQTISNYLNWYQQKPGKAPKLLIFAASSLQSGVPSRFSGSGSGTDFTLTISSLQPEDFATYYCQQSYSAPRVTFGPGTKVDIK | Neutralization IC50 (RSV subtype A) | > | 25 |
| ADI-41230 (antibody, V domains shown) VH: QVQLVQSGAEVKKPGESLKISCKASGYSFTSHYWIGWVRQMPGKGLEWMGFIFPGDSDTRYSPSLQGQVTISADKSTNTAYLQWNSLKASDTAMYYCARLEYLVSGFEYWGQGTLVTVSS VL: QPGLTQPHSVSESPGKTVTISCTRSSGSIASNYVHWYQQRPGSFPTTVIYEDNQRPSGVPDRFSGSIDSSSNSASLTISGLRTEDEADYYCQSYDSSNPVVFGGGTKVTVL | Neutralization IC50 (RSV subtype A) | = | 24.1 |
